Hello, the source for this data is ChEMBL document CHEMBL1201862, in case you need it.

test system: A549; test: NCI tumour cell line growth inhibition, 48 h
Calls of active or inactive are those of the source. Cut-off read from the data, not from the text of the source: active = GI50 up to about 1.1 µM and inactive = higher.
Hi there, I'd appreciate the recorded GI50 for every entry that follows.

Worked cases, answers included:
- N#Cc1ccc(CSC2=C(c3ccc(Cl)cc3)S/C(=C3\SC(SCc4ccc(C#N)cc4)=C(c4ccc(Cl)cc4)S3)S2)cc1: > 100 µM (inactive)
- CC(=O)OC12CC(C)C3(O)C4C=C(C)C(=O)[C@@]4(O)CC(CO)=C[C@H]3C1C2(C)C (stereo partly drawn): 2.38 µM (inactive)
- c1ccc2c(c1)Sc1ccccc1N2C1CN2CCC1CC2 (stereo not drawn): 16.7 µM (inactive)
- CC(=O)NC(ON1C(=O)COc2ccccc21)C(Cl)(Cl)Cl (stereo not drawn): > 100 µM (inactive)
- O=c1[nH]nc(-c2ccccc2)c2[nH]c3c(c12)Cc1ccccc1-3: 21.2 µM (inactive)
- NC(=O)NCCCC(NC(=O)OCCCCn1ccc(=O)[nH]c1=O)C(=O)O (stereo not drawn): > 100 µM (inactive)
- O=C(O)c1cc2ccccc2c(S(=O)(=O)O)c1O: > 100 µM (inactive)

From here, focus on the item given below.
Fetch value of GI50 on A549 for `CN(C)Cc1cc(/N=N/c2ccccc2Cl)ccc1O` .
9.12 µM (inactive)

* * *

test system: SR; test: NCI tumour cell line growth inhibition, 48 h
Activity calls are given as the source filed them. Rule as the data show it: active = GI50 up to about 1.1 µM and inactive = higher.
endpoint_name: GI50

• CC(=O)N1CC[N+](C)(CCCCN2c3ccccc3Sc3cc(N=[N+]=[N-])ccc32)CC1 = > 100 µM (inactive)
• O=C(O)CCCCC1CCSS1 (configuration not stated) = > 100 µM (inactive)
• O=P(O)(Cc1ccccc1)OCC1(O)OCC(O)C(O)C1O (configuration not stated) = > 10 µM (inactive)
• CC(=O)NC(ON1C(=O)COc2ccccc21)C(Cl)(Cl)Cl (configuration not stated) = > 100 µM (inactive)
• NC(=S)NN=Cc1ccccc1OCc1cccc(COc2ccccc2C=NNC(N)=S)n1 = > 100 µM (inactive)
• O=CN/C=C/c1cccc(O)c1 = > 43.7 µM (inactive)

Could I get GI50 for every one of these entries?
1. COc1cc2c(OC)cc1CSCc1sc(C)c(c1Br)CSC2
2. C=C(C(=O)OCC)C(=O)OCC
3. CCN1C(=S)n2cccc2C1CC(=O)c1ccc(Cl)cc1 (configuration not stated)
4. Cc1ccc(S(=O)(=O)c2ccc(NC(=O)SCCC(=O)O)cc2)cc1
5. [Zn+2][N+]12CCN3CCN4CCN(CC1)[PH]432 (configuration not stated)
6. CSc1nc2c(c(=O)n1C)N=C(c1ccc([N+](=O)[O-])cc1)CC(c1ccccc1)N2 (configuration not stated)

["4.16 µM (inactive)", "20.7 µM (inactive)", "57 µM (inactive)", "> 100 µM (inactive)", "> 100 µM (inactive)", "> 100 µM (inactive)"]

* * *

test system: A498; assay: NCI tumour cell line growth inhibition, 48 h
The source made the active and inactive calls. Rule as the data show it: active = GI50 up to about 1.1 µM and inactive = higher. *1 amine or outer side, *2 acyl side, *3 side chain or, on linkers, in order; H or OH if unused. Where a SMILES comes first, the peptide text is derived from it. Bridges are numbered along the chain shown (N, C = ends). [ ]: non-standard residue; d: D form. ξ: configuration not given here. X10 = CCC(C)C(N[*:1])C(O)CC(=O)O[C@H](C(=O)C(C)C(=O)[*:2])C(C)C; NMeY = CN[C@@H](Cc1ccc(O)cc1)C(=O)O; ξNMeL = CNC(CC(C)C)C(=O)O; ξT = CC(O)C(N)C(=O)O
Answer with one of the outcomes given here: label 1 (active), label 0 (inactive)

• CCC(C)C1NC(=O)C(NC(=O)C(CC(C)C)N(C)C(=O)[C@@H]2CCCN2)C(C)OC(=O)[C@H](Cc2ccc(OC)cc2)N(C)C(=O)[C@@H]2CCCN2C(=O)[C@H](CC(C)C)NC(=O)C(C)C(=O)[C@H](C(C)C)OC(=O)CC1O (some centres undefined) (H-P[ξNMeL][ξT][X10]LP[NMeY](Me); ester 3-C) = label 1
• CCCCN[C@H]1C2C3CC4C5CC(C42)C1(C)C53 (some centres undefined) = label 0
• C=C1C(=O)[C@@]23CC1C(O)[C@@H](OC(C)=O)[C@@H]2C1(C)C(OC(C)=O)C[C@@H](OC(C)=O)C(C)(C)[C@@H]1C[C@H]3OC(C)=O (some centres undefined) = label 0
• COC(=O)c1ccc(N/C=C(/C#N)c2ccsc2)cc1 = label 0
• COc1cc(N(CCC#N)CCC#N)ccc1C(/N=N/c1cccc(C)c1)=N\NC(=O)c1ccc(C)cc1 = label 0
• CC1=CC(=O)CC(C)(C)C1(O)/C=C/C(C)=C/C(=O)O (centres undefined) = label 0
• O=c1[nH]nc(-c2ccccc2)c2[nH]c3c(c12)Cc1ccccc1-3 = label 0
• Cc1cccc(Nc2cn(CCOc3ccccc3)c(=O)[nH]c2=O)c1 = label 0
• CCSSCS(C)(=O)=O = label 0
• O=C(Nc1nc2ncn(CCOC(=O)c3ccccc3)c2c(=O)[nH]1)c1ccccc1 = label 0

Identify the outcome logged in this assay for the compound shown: `COc1cccc(C(=O)N[C@@H]2[C@H](O)[C@@H](CO)O[C@H]2n2cnc3c(N)ncnc32)c1`
label 0

Called result for CC(C)C1CC(CO)(CNc2nc(N)nc(Cl)c2C=O)C1 (centres undefined)
label 0

Identify the outcome logged in this assay for the compound shown: `CCOC(=O)c1nc[nH]c1/N=N/N(C)N`
label 0

Which outcome was entered for the compound `O=C(Nc1ccc2ncccc2c1)Nc1ccc2ncccc2c1` in this test?
label 0

* * *

system: SNB-75; assay: NCI tumour cell line growth inhibition, 48 h
The source made the active and inactive calls. No stated cut-off is given here; in the data, active = GI50 up to about 1.1 µM and inactive = higher.
Kindly supply the reported GI50 values for the records listed here.

* COC(=O)CCC(NC(=S)N/N=C(\C)c1ccc[nH]1)C(=O)OC (configuration not stated) | > 100 µM (inactive)
* Oc1ccccc1/C=N/N1C(=S)N(c2ccccc2)C(=N\c2ccccc2)/C1=N/c1ccccc1 | 3.21 µM (inactive)
* CC(=O)OC1(C#N)CC2OC1C1C2N1C(=O)c1ccccc1 (configuration not stated) | > 100 µM (inactive)

For each listed entry, give its GI50.
1. O=C1C(c2ccc(Br)cc2)=[N+]([O-])c2ccccc21
2. N#C/C(=C\c1cc2ccccc2c2ccccc12)c1ccccc1
3. C=C(C(=O)OCC)C(=O)OCC
4. CC(C)=C=CP(=O)(O)c1ccccc1
5. CC(=O)OCC1OC(n2c(C)c(C(C)=O)c(-c3ccc(Cl)cc3)c(C#N)c2=S)C(OC(C)=O)C(OC(C)=O)C1OC(C)=O (configuration not stated)

["16.6 µM (inactive)", "2.31 µM (inactive)", "> 100 µM (inactive)", "> 100 µM (inactive)", "> 100 µM (inactive)"]

Provide reported GI50 for each item, in the same order as listed.
1. Cc1nnc(N2C(=O)C(=Cc3ccc(Cl)cc3)N=C2c2ccc(Cl)cc2)nc1/C=C\c1ccc(N(C)C)cc1
2. COc1ccc(C2=C(Cl)c3cc(OC)c(OC)cc3C2OC)cc1OC (configuration not stated)
3. COc1ccc(S(=O)(=O)NNS(C)(=O)=O)cc1
4. CN(C)CCCN1c2ccc([N+](=O)[O-])cc2CCc2cccc([N+](=O)[O-])c21
5. OCCN(CO)CO

["> 100 µM (inactive)", "> 100 µM (inactive)", "> 100 µM (inactive)", "13.2 µM (inactive)", "> 100 µM (inactive)"]

I'm hoping you can list GI50 for every compound here, please.
1. CC(C)=CCC[C@@H](C)c1c2ncc[nH]c-2c(C)c(=O)c1O
2. O=[N+]([O-])c1ccc(/N=N/c2c(O)ccc3cc(S(=O)(=O)O)cc(S(=O)(=O)O)c23)cc1
3. CC(=O)N1C/C(=C\c2ccc(N(C)C)cc2)C(=O)/C(=C/c2ccc(N(C)C)cc2)C1
4. O=C1/C(=C/c2ccc(O)cc2)CC/C1=C\c1ccc(O)cc1

1. 28.2 µM (inactive)
2. > 100 µM (inactive)
3. 17.2 µM (inactive)
4. > 100 µM (inactive)

* * *

test system: SF-295; experiment: NCI tumour cell line growth inhibition, 48 h
Active and inactive are the calls of the source. Cut-off read from the data, not from the text of the source: active = GI50 up to about 1.1 µM and inactive = higher.
// one of active, inactive, no free text

Use the examples below as a reference point.
- CC(C)=CCC[C@@H](C)c1c2ncc[nH]c-2c(C)c(=O)c1O: inactive
- COc1ccc(/C=C2/C(=O)N(C(=O)c3ccccc3O)N=C2C)cc1OC: active
- O=P1(c2ccccc2)C(c2ccccc2)=CC=C1c1ccccc1: inactive
- C[C@]12CC[C@H](O)C=C1CC[C@@H]1[C@@H]2CC[C@]2(C)C(c3ccc(=O)oc3)CC[C@]12O (stereo not given in full): active
- O=C1C2=Nc3ccccc3C(O)(C(=O)O)N2c2ccccc21 (stereo not given): inactive

Record lookup: outcome of this test for O=C(O)C1(Cc2ccc3c(c2)CCC3)Cc2ccccc2C1=O (stereo not given) ?
inactive

Lab log entry: `O=C1c2ccccc2-c2cc([N+](=O)[O-])c([N+](=O)[O-])cc21` — outcome as called in the assay?
inactive

Could you please tell me the result logged for `C/C(=C\[C@H]1C[C@@H]([C@@H]2CC[C@]34C[C@]23C=C[C@@H]2[C@@]3(C)CC=C5C[C@@H](c6ccccc6)OC[C@]5(C)[C@@H]3C[C@@H](O)[C@]24C)C(=O)O1)CO` in this assay?
inactive

Assay outcome for `Cc1ns/c(=N\C(=S)N(C)C)n1C` : what was it?
inactive

Check the results log: what was the call for `COc1cc(C(=O)/C=C/c2ccc(OCCSCCCCCCCCCCSCCOc3ccc(/C=C/C(=O)c4cc(OC)c(OC)c(OC)c4)cc3)cc2)cc(OC)c1OC` ?
inactive
